Cited source: patent US20240270715A1

The entries below are paired with their reported Papp.
- assay-notes: Caco-2 permeability assay (CacoReady kit)
- Assay type: in vitro ADME
- experimental-parameters: human

Reference set, count: 2
{"columns": ["compound", "measure-name", "reported-result"],
 "data": [
  ["CCNC(=O)C(=O)CC[C@H](NC(=O)c1cc(Br)c(Cl)s1)C(=O)Nc1cccn(CC(=O)NC2C3CC4CC(C3)CC2C4)c1=O (stereo partly shown)", "Papp", "1 to 10 ×10⁻⁶ cm/s"],
  ["CCNC(=O)C(=O)CC[C@H](NC(=O)c1cccnc1)C(=O)Nc1cccn(CC(=O)NCCc2ccccc2)c1=O [Ref. 4, reference compound]", "Papp", "< 1 ×10⁻⁶ cm/s"]
]}

compound `CCNC(=O)C(=O)CC[C@H](NC(=O)c1cncn1C)C(=O)Nc1cccn(CC(=O)NC23CC4CC(C2)C(F)(F)C(C4)C3)c1=O` , Papp observed: < 1 ×10⁻⁶ cm/s

###

- assay-notes: Log D by shake flask method (octanol / PBS pH 7.4, HPLC)
- Assay type: physicochemical
- experimental-parameters: octanol / PBS pH 7.4, shake flask; read-out: logD
- Experimental: In order to classify the inventive compounds according to their lipophilicity, Log D values (distribution coefficient) were determined by means of the well-established shake flask method, measuring the partition of a compound between an octanol and phosphate-buffered saline (PBS, pH 7.4) by HPLC. Compounds with a moderate lipophilicity (Log D values from 0 to 3) are usually advantaged for oral absorption, being in balance between solubility and permeability. […]
The entries below are paired with their reported logD.

Reference set, count: 5
{"columns": ["compound", "logD"],
 "data": [
  ["CCNC(=O)C(=O)CC[C@H](NC(=O)[C@H]1CCNC1)C(=O)Nc1cccn(CC(=O)NC2C3CC4CC2CC(F)(C4)C3)c1=O (stereo partly shown)", "< 1"],
  ["CCNC(=O)C(=O)CC[C@H](NC(=O)[C@@H]1CN2CCN1CC2)C(=O)Nc1cccn(CC(=O)NC2C3CC4CC(C3)CC2C4)c1=O (stereo partly shown)", "1 to 3"],
  ["CCNC(=O)C(=O)CC[C@H](NC(=O)c1cncn1C)C(=O)Nc1cccn(CC(=O)NC[C@@H]2CC[C@H]3C[C@@H]2C3(C)C)c1=O", "1 to 3"],
  ["CCNC(=O)C(=O)CC[C@H](NC(=O)c1cc(Cl)c(Cl)s1)C(=O)Nc1cccn(CC(=O)NC2C3CC4CC(C3)CC2C4)c1=O (stereo partly shown)", "3 to 5"],
  ["CCNC(=O)C(=O)CC[C@H](NC(=O)c1cncn1C)C(=O)Nc1cccn(CC(=O)NC23CC4CC(C2)CC(C(F)(F)F)(C4)C3)c1=O", "< 1"]
]}

compound `CCNC(=O)C(=O)CC[C@H](NC(=O)c1c(C)ncn1C)C(=O)Nc1cccn(CC(=O)NC23CC4CC(CC(CC)(C4)C2)C3)c1=O` , logD observed: 1 to 3

compound `CCNC(=O)C(=O)CC[C@H](NC(=O)c1ccc2c(c1)CCCN2)C(=O)Nc1cccn(CC(=O)NC23CCC(C2)C3)c1=O` , logD observed: < 1

compound `CCNC(=O)C(=O)CC[C@H](NC(=O)c1cn(C2CCC2)cn1)C(=O)Nc1cccn(CC(=O)NC23CC4CC(CC(CC)(C4)C2)C3)c1=O` , logD observed: 1 to 3

compound `CCNC(=O)C(=O)CC[C@H](NC(=O)c1cncn1C)C(=O)Nc1cccn(CC(=O)NC23CC4CC(C2)C(F)(F)C(C4)C3)c1=O` , logD observed: < 1

compound CCNC(=O)C(=O)CC[C@H](NC(=O)c1cc(C)oc1C)C(=O)Nc1cccn(CC(=O)NC2C3CC4CC(C3)CC2C4)c1=O (stereo partly shown) , logD observed: 1 to 3
